Biological target: recombinant human NaV1.8 stably transfected HEK cells (Homo sapiens, UniProt Q9Y5Y9)
Construct: expressed in transfected cells; host or cells: HEK cells, stably transfected
Sequence (Q9Y5Y9 whole entry): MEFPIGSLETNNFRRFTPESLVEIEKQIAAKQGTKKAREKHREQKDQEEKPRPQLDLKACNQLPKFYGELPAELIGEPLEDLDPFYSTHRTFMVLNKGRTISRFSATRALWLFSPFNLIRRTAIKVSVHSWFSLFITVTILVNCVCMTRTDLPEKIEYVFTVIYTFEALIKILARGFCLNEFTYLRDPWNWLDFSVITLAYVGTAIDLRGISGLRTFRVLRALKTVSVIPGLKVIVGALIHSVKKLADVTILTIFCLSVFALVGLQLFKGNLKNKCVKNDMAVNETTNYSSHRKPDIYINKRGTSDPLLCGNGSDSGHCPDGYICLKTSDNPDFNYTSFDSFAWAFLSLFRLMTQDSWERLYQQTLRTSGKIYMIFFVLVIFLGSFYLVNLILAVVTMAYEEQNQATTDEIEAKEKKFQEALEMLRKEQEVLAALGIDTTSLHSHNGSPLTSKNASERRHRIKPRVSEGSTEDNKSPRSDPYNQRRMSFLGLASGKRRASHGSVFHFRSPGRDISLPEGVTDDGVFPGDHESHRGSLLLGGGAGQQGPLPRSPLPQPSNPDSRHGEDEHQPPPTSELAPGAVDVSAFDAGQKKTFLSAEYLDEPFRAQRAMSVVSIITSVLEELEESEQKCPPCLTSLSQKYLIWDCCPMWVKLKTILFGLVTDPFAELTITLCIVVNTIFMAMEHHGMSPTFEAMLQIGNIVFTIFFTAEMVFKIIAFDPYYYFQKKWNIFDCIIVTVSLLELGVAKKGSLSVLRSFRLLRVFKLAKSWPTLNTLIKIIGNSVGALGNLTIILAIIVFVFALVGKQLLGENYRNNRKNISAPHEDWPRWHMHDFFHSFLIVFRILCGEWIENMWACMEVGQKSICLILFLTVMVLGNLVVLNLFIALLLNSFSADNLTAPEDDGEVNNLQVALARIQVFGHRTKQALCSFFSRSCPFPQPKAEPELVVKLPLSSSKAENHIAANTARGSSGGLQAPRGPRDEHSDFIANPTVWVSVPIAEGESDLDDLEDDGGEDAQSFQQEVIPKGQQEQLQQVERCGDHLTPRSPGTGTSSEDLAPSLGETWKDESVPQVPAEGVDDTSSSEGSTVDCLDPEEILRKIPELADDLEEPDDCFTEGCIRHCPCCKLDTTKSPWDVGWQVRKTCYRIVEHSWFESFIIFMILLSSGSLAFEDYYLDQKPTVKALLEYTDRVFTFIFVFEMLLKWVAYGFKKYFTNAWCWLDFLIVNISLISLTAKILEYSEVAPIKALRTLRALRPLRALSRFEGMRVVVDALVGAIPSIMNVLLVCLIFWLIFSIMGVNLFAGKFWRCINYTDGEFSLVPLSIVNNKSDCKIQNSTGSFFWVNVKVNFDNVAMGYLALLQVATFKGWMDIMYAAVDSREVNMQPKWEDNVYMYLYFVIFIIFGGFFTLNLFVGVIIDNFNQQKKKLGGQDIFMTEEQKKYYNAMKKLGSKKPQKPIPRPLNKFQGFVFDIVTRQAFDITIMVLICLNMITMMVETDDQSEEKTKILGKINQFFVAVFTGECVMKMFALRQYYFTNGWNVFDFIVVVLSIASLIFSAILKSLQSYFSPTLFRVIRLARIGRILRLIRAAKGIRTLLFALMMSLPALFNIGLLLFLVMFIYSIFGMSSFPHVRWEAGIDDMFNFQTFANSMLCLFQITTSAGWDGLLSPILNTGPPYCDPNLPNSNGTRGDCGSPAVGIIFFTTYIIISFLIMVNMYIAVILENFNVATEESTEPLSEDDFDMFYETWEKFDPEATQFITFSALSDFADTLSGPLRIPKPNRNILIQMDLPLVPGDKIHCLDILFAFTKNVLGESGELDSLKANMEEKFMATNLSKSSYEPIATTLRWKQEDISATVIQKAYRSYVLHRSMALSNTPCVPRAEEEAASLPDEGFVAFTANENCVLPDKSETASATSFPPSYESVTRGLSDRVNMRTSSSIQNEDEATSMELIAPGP
Test: Compound profiling on NaV1.8, human NaV1.8 cell line, SyncroPatch384PE automated patch clamp assay (Example 102, first set of compounds, Table 16)
Type: cell-based
Settings: resting state block (P1 measurement), human NaV1.8 HEK cells, Table 16 (first set of compounds), read-out: P1IC50
Please go through the items and note down their IC50.

Tell me IC50 reported for COc1cc(F)c(F)cc1Oc1ncc(C(F)(F)F)cc1C(=O)Nc1cccc(S(C)(=N)=O)c1 (centres unmarked)
0.02 to 0.04 µM

For the compound N#CC1CC(Oc2ncc(C(F)(F)F)cc2C(=O)Nc2cccc(C(N)=O)c2)C1 (mixture of isomers) , report IC50.
0.2 to 0.5 µM

Name the recorded IC50 of the item CS(=N)(=O)c1cccc(NC(=O)c2cc(C(F)(F)F)cnc2OC2CC(C(F)(F)F)C2)c1 (mixture of isomers) in your answer.
0.04 to 0.2 µM

Tell me IC50 reported for Cc1cc(C(F)(F)F)ccc1Oc1ncc(C(F)(F)F)cc1C(=O)Nc1cccc(S(C)(=O)=O)c1
0.02 to 0.04 µM

Item COc1ccc(Oc2nnc(C(F)(F)F)c(C)c2C(=O)Nc2cccc(S(C)(=N)=O)c2)c(C)n1 (single isomer, unassigned) [Compound 1508] : provide IC50
0.04 to 0.2 µM

Report IC50 for Cc1c(Oc2ncc(C(F)(F)F)cc2C(=O)Nc2cccc(S(C)(=N)=O)c2)ccc(OC(F)(F)F)c1F (centres unmarked) [Compound 1712]
≤ 0.02 µM

Identify IC50 associated with the compound NC(=O)c1cccc(NC(=O)c2cc(C(F)(F)F)cnc2Oc2ccc(OC(F)F)cc2)c1
0.04 to 0.2 µM

Let me know recorded IC50 for COc1cc(Cl)ccc1Oc1nnc(C(F)(F)F)c(C)c1C(=O)Nc1cccc(S(C)(=N)=O)c1 (single isomer, unassigned) [Compound 1481] , thanks.
≤ 0.02 µM

Specify measured IC50 for COc1cc(C#N)ccc1Oc1nnc(-c2ccc(C#N)cc2)c(C)c1C(=O)Nc1cccc([S@](C)(=N)=O)c1 .
0.04 to 0.2 µM

Report IC50, nothing else, for this compound: COc1cc(F)c(Oc2ncc(C(F)(F)F)cc2C(=O)Nc2cccc(S(C)(=N)=O)c2)cc1F (centres unmarked)
0.2 to 0.5 µM

Complete the entry with IC50 for CS(=N)(=O)c1cccc(NC(=O)c2cc(C(F)(F)F)cnc2Oc2ccc(OC(F)F)nc2)c1 (centres unmarked)
0.04 to 0.2 µM

Given the compound CCOc1ncc(C(F)(F)F)cc1C(=O)Nc1cccc(S(C)(=O)=O)c1 , write its reported IC50.
0.2 to 0.5 µM

Consider the compound CS(=O)(=O)c1cccc(NC(=O)c2cc(C(F)(F)F)cnc2Oc2ccc3c(c2)NC(=O)C3)c1 and give its recorded IC50.
0.2 to 0.5 µM

Provide one value: measured IC50 of COc1cc(C#N)ccc1Oc1nnc(-c2ccc(C#N)cc2)c(C)c1C(=O)Nc1cccc([S@@](C)(=N)=O)c1
0.04 to 0.2 µM

---

Biological target: recombinant human NaV1.8 stably transfected HEK cells (Homo sapiens, UniProt Q9Y5Y9)
Construct: expressed in transfected cells; host or cells: HEK cells, stably transfected
Assay: Compound profiling on NaV1.8, human NaV1.8 cell line, SyncroPatch384PE automated patch clamp assay (Example 102, first set of compounds, Table 16)
Assay type: cell-based
Details: inactivated state block (P2 measurement), human NaV1.8 HEK cells, Table 16 (first set of compounds), read-out: P2IC50
Method: Compound Profiling on NaV1.8—Human NaV1.8 Cell Line—SyncroPatch384PE Assay Compounds were tested on recombinant human NaV1.8 stably transfected HEK cells using the SyncroPatch384PE system, an automated patch clamp device. […] Compounds were tested in triplicate in 0.1% DMSO and 0.030% Pluronic Acid. […] Compounds were then applied by the SynchroPatch into each well and the current was recorded for five minutes in EC, followed by application of tetracaine to achieve full block at the end of the experiment. […]
assay-readout: IC50

Enter recorded IC50 with recombinant human NaV1.8 stably transfected HEK cells (Homo sapiens, UniProt Q9Y5Y9) for CS(=O)(=O)c1cccc(NC(=O)c2cc(C(F)(F)F)cnc2Oc2cccc3c2OCCC3)c1 here.
200 to 500 nM

State recorded IC50 with recombinant human NaV1.8 stably transfected HEK cells (Homo sapiens, UniProt Q9Y5Y9), entry CS(=N)(=O)c1cccc(NC(=O)c2cc(C(F)(F)F)cnc2OC2CC(C(F)(F)F)C2)c1 (mixture of isomers) , no comment.
40 to 200 nM

Look up recombinant human NaV1.8 stably transfected HEK cells (Homo sapiens, UniProt Q9Y5Y9) data: IC50 of COc1c(Oc2nnc(C(F)(F)F)c(C)c2C(=O)Nc2cccc(S(C)(=O)=O)c2)ccc(F)c1F , then report it.
≤ 20 nM

Supply IC50 measured with recombinant human NaV1.8 stably transfected HEK cells (Homo sapiens, UniProt Q9Y5Y9) for COc1cc(C#N)ccc1Oc1nnc(-c2ccc(C)cc2)c(C)c1C(=O)Nc1cccc([S@](C)(=N)=O)c1 .
≤ 20 nM

Reference source: patent US20240336574A1
